- TARGET OF ASSAY: Nicotinic acetylcholine receptor alpha 5 subunit (Musca domestica, UniProt A9XFY4)
- Sequence (A9XFY4 whole entry): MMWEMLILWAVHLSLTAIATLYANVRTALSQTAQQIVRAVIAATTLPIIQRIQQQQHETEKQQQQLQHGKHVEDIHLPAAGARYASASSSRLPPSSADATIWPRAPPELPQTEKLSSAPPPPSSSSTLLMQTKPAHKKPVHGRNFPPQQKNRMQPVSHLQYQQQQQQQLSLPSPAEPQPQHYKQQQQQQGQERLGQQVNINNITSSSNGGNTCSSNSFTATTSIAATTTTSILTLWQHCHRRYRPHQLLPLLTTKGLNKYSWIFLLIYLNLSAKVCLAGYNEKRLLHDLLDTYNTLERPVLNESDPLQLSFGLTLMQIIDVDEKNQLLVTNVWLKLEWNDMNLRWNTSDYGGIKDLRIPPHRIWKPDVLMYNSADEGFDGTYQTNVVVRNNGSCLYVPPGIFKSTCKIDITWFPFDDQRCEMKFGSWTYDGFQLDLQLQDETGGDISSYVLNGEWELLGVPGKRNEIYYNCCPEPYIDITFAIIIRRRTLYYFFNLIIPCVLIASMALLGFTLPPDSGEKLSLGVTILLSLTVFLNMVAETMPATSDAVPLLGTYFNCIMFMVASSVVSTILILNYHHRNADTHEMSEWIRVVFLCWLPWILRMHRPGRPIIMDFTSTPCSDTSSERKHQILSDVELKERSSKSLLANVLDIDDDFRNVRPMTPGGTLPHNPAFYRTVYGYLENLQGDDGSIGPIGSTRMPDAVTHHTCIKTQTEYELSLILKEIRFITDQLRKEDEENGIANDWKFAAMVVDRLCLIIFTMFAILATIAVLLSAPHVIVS
- TEST DETAILS: Displacement of [3H]imidacloprid from nicotinic acetylcholine receptor in Musca domestica (house fly) head membrane after 1 hr by liquid scintillation counting analysis
MEASURED METRIC: pKi
Quick note: pKi means taking -log10 of the concentration in moles per liter.

In the examples that follow, each entry is paired with its recorded pKi.
CN1CCN(Cc2ccc(Cl)nc2)/C(=N/C#N)C1=O    8.22
O=C1NCCN(Cc2ccc(Cl)nc2)C1=O    6.40
N#C/N=C1\NCCN1Cc1ccc(Cl)nc1    7.77
CO/N=C1/NCCN(Cc2ccc(Cl)nc2)C1=O    5.82
CN1CCN(Cc2cnc(Cl)s2)/C(=N\C#N)C1=O    8.40

pKi in this record for NC(=S)N/N=C1/NCCN(Cc2ccc(Cl)nc2)C1=O : 5.41

pKi in this record for O=C1C(=S)NCCN1Cc1ccc(Cl)nc1 : 5.75

pKi in this record for CN(C)C(=O)/C(=N\C#N)N(C)Cc1ccc(Cl)nc1 : 5.42

pKi in this record for CN1CCN(CC2CCOC2)/C(=N\C#N)C1=O (stereo unspecified) : 6.29

pKi in this record for N#C/N=C1/NCCN(Cc2ccc(Cl)nc2)C1=O : 6.36

pKi in this record for O=C1/C(=N\S(=O)(=O)C(F)(F)F)NCCN1Cc1ccc(Cl)nc1 : 6.23

* * *

- System: Aphis gossypii
- TEST DETAILS: Insecticidal activity against Aphis gossypii (cotton aphid) infested expanded cotyledon stage of summer crookneck squash seedlings assessed as mortality at 5 ppm applied as spray after 72 hr by dissecting binocular microscopic analysis relative to control
- Format: functional
MEASURED METRIC: mortality at 5 ppm (%)
Answer with a number only, understood to be in %.

In the examples that follow, each entry is paired with its recorded mortality at 5 ppm.
N#C/N=C1\NCCN1Cc1ccc(Cl)nc1    90
O=C1/C(=N\S(=O)(=O)C(F)(F)F)NCCN1Cc1ccc(Cl)nc1    90
N#C/N=C1/NCCN(Cc2ccc(Cl)nc2)C1=O    50
O=C1C(=S)NCCN1Cc1ccc(Cl)nc1    50
O=C1/C(=N\O)NCCN1Cc1ccc(Cl)nc1    50

mortality at 5 ppm in this record for O=C1NCCN(Cc2ccc(Cl)nc2)C1=O : 90

mortality at 5 ppm in this record for CO/N=C1/NCCN(Cc2ccc(Cl)nc2)C1=O : 70
